GI50 values recorded for MDA-MB-435
Readout Type: GI50

- Input Smiles: "CC(=O)O[C@H]1CC[C@]2(C)[C@H]3CC=C4[C@@H]5CC(C)(C)CC[C@]5(C(=O)NCCNCCNCCN)CC[C@@]4(C)[C@]3(C)CC[C@H]2C1(C)C"
  Result: "1670 nM"
- Input Smiles: "COc1cccc(C(=O)c2sc(Nc3ccc(N4CCN(C(C)C)CC4)cc3)nc2N)c1"
  Result: "1630 nM"
- Input Smiles: "O=C1c2ccccc2-c2c1c1ccc([N+](=O)[O-])cc1c(=O)n2CCCN1CCOCC1"
  Result: "867 nM"
- Input Smiles: "CS(=O)(=O)Nc1ccc(Nc2c3ccccc3nc3cc([N+](=O)[O-])ccc23)cc1"
  Result: "3320 nM"
- Input Smiles: "COc1ccc(O)c2c(=O)c3c(OC)cc4c(c3oc12)[C@@H]1C=CO[C@@H]1O4"
  Result: "3300 nM"

* * *

Test system: HOP-92 NSCLC
Test: NCI tumour cell line growth inhibition, 48 h
Form field: TGI (one value per entry).
Readout Type: TGI

- Molecule: "CC=C(CBr)CCC(Br)C(C)(C)Cl (mixture of isomers)"
  Study System: "HOP-92 NSCLC"
  Result: "> 10 µM"
- Molecule: "COc1cc2c3c(n(CCCn4ccnc4)c(=O)c2cc1OC)-c1cc2c(cc1C3=O)OCO2"
  Study System: "HOP-92 NSCLC"
  Result: "> 100 µM"
- Molecule: "COc1cc(Nc2c(C#N)[n+]([O-])c3ccccc3[n+]2[O-])cc(OC)c1OC"
  Study System: "HOP-92 NSCLC"
  Result: "> 100 µM"
- Molecule: "O=C1Nc2ccccc2/C1=C/C(=O)c1ccc(N2CCCC2)cc1"
  Study System: "HOP-92 NSCLC"
  Result: "7.11 µM"
- Molecule: "O=C1/C(=N\\O)C2CCC1C2 (stereo unspecified)"
  Study System: "HOP-92 NSCLC"
  Result: "> 100 µM"
- Molecule: "CN(C)c1ccc(C(C#N)NNC(=O)Cc2ccccc2)cc1 (stereo unspecified)"
  Study System: "HOP-92 NSCLC"
  Result: "> 100 µM"
- Molecule: "COc1ccc(N2C(=O)/C(=C/c3ccc(N(CCC#N)CCC#N)cc3C)N=C2/C=C\\c2ccccc2)cc1"
  Study System: "HOP-92 NSCLC"
  Result: "> 100 µM"
- Molecule: "CC12CCC(=O)N1c1cnccc1N2 (stereo unspecified)"
  Study System: "HOP-92 NSCLC"
  Result: "> 100 µM"
- Molecule: "Cc1ccc(C(=Nc2ccccc2)N=P(c2ccccc2)(c2ccccc2)c2ccccc2)cc1"
  Study System: "HOP-92 NSCLC"
  Result: "1.4 µM"
- Molecule: "COc1ccc(NC(=O)CC(=O)NN)cc1"
  Study System: "HOP-92 NSCLC"
  Result: "> 100 µM"
- Molecule: "CCCCCCSC[C@H](OC(C)=O)[C@@H](OC(C)=O)[C@@H](OC(C)=O)[C@@H](COC(C)=O)OC(C)=O"
  Study System: "HOP-92 NSCLC"
  Result: "> 100 µM"

* * *

Tested on: IGROV1 ovarian
Assay: NCI tumour cell line growth inhibition, 48 h

- Compound: "C=C1C(=O)OC2C1C(=O)C/C(C)=C/CCC1(C)OC21 (stereo not drawn)"
  Study System: "IGROV1 ovarian"
  Sign Qualifier: "="
  TGI (µM): 44.9
- Compound: "CCCCCCCC/C=C(\\Br)C(O)C(Br)Br (stereo not drawn)"
  Study System: "IGROV1 ovarian"
  Sign Qualifier: "="
  TGI (µM): 59.1
- Compound: "COc1ccc(N=NC(=O)NC(CC(C)C)C(=O)NC(Cc2ccccc2)C(=O)O)cc1 (stereo not drawn)"
  Study System: "IGROV1 ovarian"
  Sign Qualifier: ">"
  TGI (µM): 100
- Compound: "COC1CC(C)(NC(C)=O)C2OC(c3ccccc3)OCC2O1 (stereo not drawn)"
  Study System: "IGROV1 ovarian"
  Sign Qualifier: ">"
  TGI (µM): 100
- Compound: "COc1oc(C(=O)NC2CCCCC2)c(-c2ccc(Cl)cc2)c1S(=O)(=O)c1ccccc1"
  Study System: "IGROV1 ovarian"
  Sign Qualifier: "="
  TGI (µM): 3.35
- Compound: "Clc1ccc(C2=Nc3ccccc3SC(c3cccs3)C2)cc1 (stereo not drawn)"
  Study System: "IGROV1 ovarian"
  Sign Qualifier: "="
  TGI (µM): 28
- Compound: "OCCN(CCO)CCn1cnc2c(NCc3ccccc3)ncnc21"
  Study System: "IGROV1 ovarian"
  Sign Qualifier: ">"
  TGI (µM): 100
- Compound: "CCCCN(CCCC)CC(C(=O)Nc1ccccc1)/C(C)=N\\NC(=O)c1ccncc1 (stereo not drawn)"
  Study System: "IGROV1 ovarian"
  Sign Qualifier: ">"
  TGI (µM): 100
- Compound: "CCC1(CC)C(=O)N(C(=O)c2ccc(C)cc2)N(C(=O)c2ccc(C)cc2)C1=O"
  Study System: "IGROV1 ovarian"
  Sign Qualifier: ">"
  TGI (µM): 75
- Compound: "COc1ccc(-c2nn(C(=O)NCCN(C)C)cc2-c2ccncc2)cc1Cl"
  Study System: "IGROV1 ovarian"
  Sign Qualifier: ">"
  TGI (µM): 100
- Compound: "O=C(O)CN(CCN(CC(=O)O)CC(=O)O)CC(=O)O"
  Study System: "IGROV1 ovarian"
  Sign Qualifier: ">"
  TGI (µM): 100
- Compound: "CC(=O)Nc1nc2ncc(C=O)nc2c(=O)[nH]1"
  Study System: "IGROV1 ovarian"
  Sign Qualifier: ">"
  TGI (µM): 100
- Compound: "Cc1[nH]c(-c2ccccc2)c(O)c1C(=O)OC12CC3CC(CC(C3)C1)C2"
  Study System: "IGROV1 ovarian"
  Sign Qualifier: "="
  TGI (µM): 27.4
- Compound: "Cc1cc2c(cc1C)[n+](=O)c(C(=O)C(C)(C)C)c(C(F)(F)F)n2[O-]"
  Study System: "IGROV1 ovarian"
  Sign Qualifier: "="
  TGI (µM): 20.3
- Compound: "OCCCc1n(Cc2ccc3ccccc3c2)c2ccccc2[n+]1Cc1ccc2ccccc2c1"
  Study System: "IGROV1 ovarian"
  Sign Qualifier: "="
  TGI (µM): 2.48
- Compound: "O=C(CI)OCC(COC(=O)CI)OC(=O)CI"
  Study System: "IGROV1 ovarian"
  Sign Qualifier: "="
  TGI (µM): 3.5
- Compound: "S=c1ncc2n[nH]nc2[nH]1"
  Study System: "IGROV1 ovarian"
  Sign Qualifier: ">"
  TGI (µM): 100
- Compound: "CCOc1ccc(Nc2nc(C)c(C(=O)/C=C/c3ccc(Cl)cc3Cl)s2)cc1"
  Study System: "IGROV1 ovarian"
  Sign Qualifier: "="
  TGI (µM): 85.1
- Compound: "O=C(O)c1ccc(Cc2ccccc2C(=O)O)cc1"
  Study System: "IGROV1 ovarian"
  Sign Qualifier: ">"
  TGI (µM): 100
- Compound: "O=C1Nc2ccc(Cl)cc2C(=O)N2CCC[C@@H]12"
  Study System: "IGROV1 ovarian"
  Sign Qualifier: ">"
  TGI (µM): 100
- Compound: "COc1ccc(C(=O)c2c(C(C(=O)c3ccc(OC)cc3)C(=O)c3ccc(OC)cc3)n(C(=O)c3ccc(OC)cc3)c3ccccc23)cc1"
  Study System: "IGROV1 ovarian"
  Sign Qualifier: ">"
  TGI (µM): 100
- Compound: "CC(C)Oc1c(N(Cc2ccccc2)c2ccccc2C2SCCCS2)c(=O)c1=O"
  Study System: "IGROV1 ovarian"
  Sign Qualifier: ">"
  TGI (µM): 32.8
- Compound: "OC1c2c(ccc3c2CCC3)CC12Cc1ccccc1C2 (stereo not drawn)"
  Study System: "IGROV1 ovarian"
  Sign Qualifier: "="
  TGI (µM): 47.5

* * *

Tested on: BT-549 breast
Assay: NCI tumour cell line growth inhibition, 48 h
Label rule, in plain words: TGI of 30 µM and up is label 1, under 30 µM is label 0.

- Input Smiles: "O=C(Nn1cc(F)c(=O)[nH]c1=O)C12CC3CC(CC(C3)C1)C2"
  Label Class: "label 1"
- Input Smiles: "C/C(=N\\NC(=O)c1ccc(C(C)(C)C)cc1)c1ccc(O)cc1O"
  Label Class: "label 1"
- Input Smiles: "NC(=O)c1ncn2c1CNC(=O)C2"
  Label Class: "label 1"
- Input Smiles: "CCCCCNC(=O)c1cc2cc(CCl)ccc2oc1=O"
  Label Class: "label 1"
- Input Smiles: "Cc1cc2c(cc1C)[n+](=O)c(C(=O)C(C)(C)C)c(C(F)(F)F)n2[O-]"
  Label Class: "label 1"
- Input Smiles: "Cc1cc(S(=O)(=O)O)ccc1N=Nc1c(O)ccc2ccccc12"
  Label Class: "label 1"
- Input Smiles: "COc1cc2c(cc1OC)[C@@H]1C(=O)c3cc4c(cc3[C@@H]1N(CCN(C)C)C2=O)OCO4"
  Label Class: "label 0"
- Input Smiles: "NC(=O)c1nnsc1N/N=C/c1ccc([N+](=O)[O-])cc1"
  Label Class: "label 1"
- Input Smiles: "CCN(Cc1cccnc1)c1ccc(CO)c(Cl)c1"
  Label Class: "label 1"
- Input Smiles: "Nc1nc(N)c(-c2cccc(C(F)(F)F)c2)c(Cc2cccc(C(F)(F)F)c2)n1"
  Label Class: "label 0"
